normalized growth values by entry
- test_summary: chemical genetic growth profiling, strain panel (AID 1159580);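 also: tested at 20 µM; growth read once vehicle control cultures reached saturation at 30 °C; 1 = growth at the plate median or of vehicle wells; lower values mean less growth of the strain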
- condition_context: S. cerevisiae deletion strains, growth OD, locus YHR079C, strain IRE1, hits give low values
The whole screen tested about 5,500 compounds, of which about 2,000 (36%) were called active. Roughly 18% stayed inconclusive and do not appear here. The list shows a part of the results.
When you answer, write just the number.

>  <molecule>
CC(C)CSc1nnc(CSCc2nc(-c3ccc(Cl)cc3)cs2)n1C

>  <readout>
normalized growth

>  <observed_result>
1.06

$$$$
>  <molecule>
N/C(CSc1ccc(Cl)cc1)=N/OC(=O)c1ccc(C(F)(F)F)cc1

>  <readout>
normalized growth

>  <observed_result>
0.739

$$$$
>  <molecule>
O=C1c2c(O)ccc(O)c2C(=O)c2c(NCCNCCO)ccc(NCCNCCO)c21

>  <readout>
normalized growth

>  <observed_result>
0.951

$$$$
>  <molecule>
Clc1ccccc1N/N=C\Cc1nnnn1-c1ccccc1

>  <readout>
normalized growth

>  <observed_result>
0.85

$$$$
>  <molecule>
CC1=NCCc2c1[nH]c1cc(O)ccc21

>  <readout>
normalized growth

>  <observed_result>
1.01

$$$$
>  <molecule>
C=C1C2CC[C@@]3(C)[C@H](c4ccoc4)OC(=O)C[C@]13O[C@H]1CC(=O)C(C)(C)[C@H](C(O)C(=O)OC)[C@@]21C (stereo partly drawn)

>  <readout>
normalized growth

>  <observed_result>
0.98

$$$$

Lab note: CC(=O)N(O)CCCCCNC(=O)CCC(=O)N(O)CCCCCNC(=O)CCC(=O)N(O)CCCCCN gave normalized growth of 1.05

Per the records, this molecule ( CC(O)(CNCc1ccc(Cl)cc1)CSc1ccccc1Cl (stereo not drawn) ) has normalized growth equal to 1

# normalized growth of COc1ccc(-c2cc(=O)c3cc(OC)ccc3o2)cc1 = 0.928

====

- test_summary: chemical genetic growth profiling, strain panel (AID 1159580);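 also: tested at 20 µM; growth read once vehicle control cultures reached saturation at 30 °C; 1 = growth at the plate median or of vehicle wells; lower values mean less growth of the strain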
- condition_context: S. cerevisiae deletion strains, growth OD, locus YDR297W, strain sur2, hits give low values
About 2,000 (36%) of roughly 5,500 compounds were called active. Inconclusive results (about 18%) are left out. The list shows a part of the results.
readout: normalized growth
Number only, no unit.

Sample records with normalized growth:
>  <molecule>
COc1ccc(-c2cc(=O)c3c(O)c(OC)c(OC)c(OC)c3o2)cc1

>  <normalized growth>
0.987

$$$$
>  <molecule>
O=C(O)/C=C(\CC(=O)O)C(=O)O

>  <normalized growth>
0.996

$$$$
>  <molecule>
Nc1ccc(C(=O)Oc2ccccc2)c(O)c1

>  <normalized growth>
0.932

$$$$

Measured normalized growth, COc1cc2cc[n+]3cc4c(OC)c(OC)ccc4cc3c2cc1OC : 0.979

Quick note, normalized growth for ClC(Cl)=C(c1ccc(Cl)cc1)c1ccc(Cl)cc1 landed at 0.995

====

Below, each of the compounds is paired with its reported normalized growth value.
- test_summary: chemical genetic growth profiling, strain panel (AID 1159580);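 also: tested at 20 µM; growth read once vehicle control cultures reached saturation at 30 °C; 1 = growth at the plate median or of vehicle wells; lower values mean less growth of the strain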
- condition_context: S. cerevisiae deletion strains, growth OD, locus YDL028C, strain MPS1, hits give low values
The campaign covered roughly 5,500 compounds. About 2,000 (36%) were called active. Roughly 18% stayed inconclusive and do not appear here. The list shows a part of the results.

>  <input_smiles>
Clc1ccccc1N/N=C\Cc1nnnn1-c1ccccc1

>  <normalized growth>
0.972 (inactive)

$$$$
>  <input_smiles>
Fc1ccc(N/N=C\Cc2nnnn2-c2ccccc2)c(F)c1

>  <normalized growth>
0.955 (inactive)

$$$$
>  <input_smiles>
Cc1csc2ncnc(N/N=C\c3ccccc3Cl)c12

>  <normalized growth>
0.968 (inactive)

$$$$

Let us move to another entry and its normalized growth.
# normalized growth of Cc1ccc(C(O)(c2ccccc2)c2ccccc2)c2ccccc12 = 0.985 (inactive)
